molecular target: human PRMT6 (Homo sapiens, UniProt Q96LA8); test: biochemical; settings: single experiment or average of multiple experiments; read-out: PRMT6 biochemical evaluation (numerical)
Sequence (Q96LA8 with tags, fused parts or gaps): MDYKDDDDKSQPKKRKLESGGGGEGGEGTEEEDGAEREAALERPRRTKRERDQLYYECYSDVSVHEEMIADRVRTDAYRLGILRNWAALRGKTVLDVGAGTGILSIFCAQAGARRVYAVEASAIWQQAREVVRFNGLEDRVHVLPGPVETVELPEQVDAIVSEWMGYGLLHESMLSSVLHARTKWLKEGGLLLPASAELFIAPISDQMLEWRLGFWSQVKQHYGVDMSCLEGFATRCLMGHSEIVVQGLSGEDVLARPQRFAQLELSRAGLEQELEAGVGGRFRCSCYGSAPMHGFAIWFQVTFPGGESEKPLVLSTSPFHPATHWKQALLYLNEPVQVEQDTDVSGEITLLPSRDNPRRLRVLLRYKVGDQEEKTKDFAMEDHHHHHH
pIC50: −log10 of the molar value.
Threshold rule: pIC50 greater than or equal to 7 is TRUE; below that, FALSE.

# check: pIC50 of "CNCCN(C)Cc1n[nH]c2ccc(Oc3ccccc3C)cc12" is greater than or equal to 7 FALSE

# check: pIC50 of "CNCCN(C)Cc1nn(C)c2ccc(OCC(C)C)cc12" is greater than or equal to 7 FALSE

# check: pIC50 of "CNCCN(C)Cc1n[nH]c2ccc(OCc3ccn(C)n3)cc12" is greater than or equal to 7 TRUE
